Entries and their measured GI50 follow.
System: U-251
assay.explanation: Growth inhibition of human U251 cells after 48 hrs by sulforhodamine B dye-based spectrophotometric assay
Assay type: functional
assay.setup: U-251, 48 h
parameter: GI50 (µM)

{"columns": ["molecule", "reported.value"],
 "data": [
  ["O=C1CS/C(=N/N=C/c2c[nH]c3ccccc23)N1c1cccc2ccccc12", 72.5],
  ["S=C(NCCc1ccccc1)N/N=C/c1c[nH]c2ccc(Br)cc12", 7.49],
  ["Cc1ccc(NC(=S)N/N=C/c2c[nH]c3ccccc23)cc1", 8.11],
  ["O=C1CS/C(=N/N=C/c2c[nH]c3ccc(Br)cc23)N1c1cccc2ccccc12", 48.8],
  ["S=C(N/N=C/c1c[nH]c2ccccc12)Nc1cccc2ccccc12", 0.92],
  ["S=C(N/N=C/c1c[nH]c2ccc(Br)cc12)Nc1cccc2ccccc12", 7.32],
  ["S=C(NCCc1ccccc1)N/N=C/c1c[nH]c2ccccc12", 77.9],
  ["Cc1ccc(N2C(=O)CS/C2=N/N=C/c2c[nH]c3ccc(Br)cc23)cc1", 54.7],
  ["Cc1ccc(N2C(=O)CS/C2=N/N=C/c2c[nH]c3ccccc23)cc1", 90.2],
  ["COc1cccc2c1C(=O)c1c(O)c3c(c(O)c1C2=O)C[C@@](O)(C(=O)CO)C[C@@H]3O[C@H]1C[C@H](N)[C@H](O)[C@H](C)O1 [DOXORUBICIN]", 0.14]
]}
